- target: UniProt:P31389
- experiment summary: In vitro inhibition of histamine-induced contractions in guinea pig ileum
# Lookup of reported log10(IC50) keyed by entry
In our notation, the value equals log10 of IC50 in µM.

Check out these entries, answers already filled in.
# structure smiles, quantity measured, meas value
records = [
    ("CCOCCn1c(N2CCCN(CC)CC2)nc2ccccc21", "log10(IC50)", -1.80),
    ("CCCCCN1CCCN(c2nc3ccccc3n2CCOCC)CC1", "log10(IC50)", -2.13),
    ("CN1CCN(c2nc3ccccc3n2CCOCCO)CC1", "log10(IC50)", -1.38),
    ("CCCCOCCn1c(N2CCN(C)CC2)nc2ccccc21", "log10(IC50)", -1.42),
    ("C=CCOCCn1c(N2CCN(C)CC2)nc2ccccc21", "log10(IC50)", -1.77),
    ("CCSCCCn1c(N2CCN(C)CC2)nc2ccccc21", "log10(IC50)", -0.28),
]

Now let's try a different one.
Exercise: I have this compound here, "CCOCCn1c(N2CCCNCC2)nc2ccccc21" , and I need its recorded log10(IC50).
Solution: -1.60

====

- target: Histamine H1 receptor (Cavia porcellus)
- Sequence (P31389 whole entry): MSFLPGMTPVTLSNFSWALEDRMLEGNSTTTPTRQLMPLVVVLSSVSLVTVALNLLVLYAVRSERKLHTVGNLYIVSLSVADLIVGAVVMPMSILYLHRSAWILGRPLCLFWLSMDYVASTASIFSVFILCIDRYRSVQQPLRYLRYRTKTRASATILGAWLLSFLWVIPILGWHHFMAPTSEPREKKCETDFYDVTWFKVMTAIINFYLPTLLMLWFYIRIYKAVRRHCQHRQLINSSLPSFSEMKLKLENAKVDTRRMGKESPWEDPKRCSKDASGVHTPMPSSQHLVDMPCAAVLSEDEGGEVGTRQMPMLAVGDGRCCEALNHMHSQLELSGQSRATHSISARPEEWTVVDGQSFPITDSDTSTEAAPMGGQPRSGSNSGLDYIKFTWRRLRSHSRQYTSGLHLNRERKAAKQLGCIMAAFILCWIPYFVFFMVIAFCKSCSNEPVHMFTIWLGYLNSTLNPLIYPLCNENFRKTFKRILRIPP
- experiment summary: In vitro inhibition of histamine-induced contractions in guinea pig ileum
quantity measured: pIC50
Please report pIC50 as the negative decimal logarithm of the molar concentration, giving only the number.

Solved entries (count: 5):
# compound, pIC50
measured = [
    ("CN1CCN(c2nc3ccccc3n2C)CC1", 6.49),
    ("C=COCCn1c(N2CCN(C)CC2)nc2ccccc21", 8.00),
    ("COCCCn1c(N2CCN(C)CC2)nc2ccccc21", 6.07),
    ("CCCCCCN1CCN(c2nc3ccccc3n2CCOCC)CC1", 8.07),
    ("C#CCOCCn1c(N2CCCN(C)CC2)nc2ccccc21", 8.00),
]

Exercise: Field request: pIC50 | item: "C#CCOCCn1c(N2CCN(C)CC2)nc2ccccc21"
Solution: 7.92

Exercise: How about "CCCSCn1c(N2CCN(C)CC2)nc2ccccc21" ?
Solution: 7.17

Exercise: Same question, "CCOCCn1c(N2CCNCC2)nc2ccccc21" this time
Solution: 7.96

Exercise: What do you get for "CCCCCn1c(N2CCN(C)CC2)nc2ccccc21" ?
Solution: 7.72

Exercise: // query: CCCC(C)Cn1c(N2CCN(C)CC2)nc2ccccc21 (stereo unspecified)
Solution: 5.82

Exercise: Try this compound too: "CCCOCCn1c(N2CCCN(C)CC2)nc2ccccc21"
Solution: 7.80

Exercise: What do you have for "CN1CCN(c2nc3ccccc3n2CCOc2ccccc2)CC1" ?
Solution: 8.16

====

# Lookup of reported IC50 keyed by entry
- target: Histamine H1 receptor (Cavia porcellus)
- experiment summary: In vitro inhibition of histamine-induced contractions in guinea pig ileum

In the examples that follow, each entry is paired with its recorded IC50.
# compound, meas value
records = [
    ("CCOCCn1c(N2CCCN(Cc3ccccc3)CC2)nc2ccccc21", "15 nM"),
    ("CCSCCn1c(N2CCN(C)CC2)nc2ccccc21", "19 nM"),
    ("CCCC(C)n1c(N2CCN(C)CC2)nc2ccccc21 (centres undefined)", "1400 nM"),
    ("CN1CCN(c2nc3ccccc3n2CCc2ccccc2)CC1", "240 nM"),
    ("CN1CCN(c2nc3ccccc3n2CCOCc2ccccc2)CC1", "430 nM"),
]

Exercise: Please provide the recorded IC50 for "CCOCCn1c(N2CCN(c3ccccc3)CC2)nc2ccccc21" , tested on Histamine H1 receptor (Cavia porcellus).
Solution: > 10000 nM

Exercise: Same question for "CCCCCN1CCN(c2nc3ccccc3n2CCOCC)CC1" please.
Solution: 30 nM

Exercise: And the next one, "CN1CCN(c2nc3ccccc3n2CCO)CC1" ?
Solution: 410 nM

Exercise: Try the compound "CN1CCN(c2nc3ccccc3n2-c2ccccc2)CC1"
Solution: 760 nM

Exercise: Another: "CCCOCn1c(N2CCN(C)CC2)nc2ccccc21"
Solution: 18 nM

Exercise: Do the same for "C=CCOCCn1c(N2CCCN(C)CC2)nc2ccccc21" please
Solution: 10 nM
